Every entry's value here was drawn from DBAASP.

# Tested on: Escherichia coli KCTC 1682
RECORDED_METRIC: MIC
// unit must come after the numeric part

Field: example entries. Status: answers known.
C[C@H](NC(=O)[C@H](Cc1c[nH]c2ccccc12)NC(=O)[C@H](CCCCN)NC(=O)[C@H](CCCN=C(N)N)NC(=O)CNC(=O)[C@H](Cc1c[nH]c2ccccc12)NC(=O)[C@H](CCCN=C(N)N)NC(=O)[C@H](CCCN=C(N)N)NC(=O)[C@H](Cc1c[nH]c2ccccc12)NC(=O)CNC(=O)[C@@H](N)CCCN=C(N)N)C(=O)N[C@@H](Cc1cnc[nH]1)C(=O)NCC(=O)N[C@@H](Cc1c[nH]c2ccccc12)C(=O)N[C@@H](CCCCN)C(=O)N[C@@H](CCCCN)C(=O)N[C@@H](Cc1ccc(O)cc1)C(=O)NCC(N)=O 4 µM
NCCCC[C@H](NC(=O)[C@H](CCCN=C(N)N)NC(=O)CN)C(=O)N[C@@H](CCCCN)C(=O)N[C@@H](CCCN=C(N)N)C(=O)N[C@@H](CCCN=C(N)N)C(=O)N[C@@H](CCC(N)=O)C(=O)N[C@@H](CCCN=C(N)N)C(=O)N[C@@H](CCCN=C(N)N)C(=O)N[C@@H](CCCN=C(N)N)C(=O)N1CCC[C@H]1C(=O)N1CCC[C@H]1C(=O)N[C@@H](CCC(N)=O)C(=O)O 2 µM
CC[C@H](C)[C@H](NC(=O)[C@H](CCCCN)NC(=O)[C@H](CCCCN)NC(=O)[C@@H](N)Cc1c[nH]c2ccccc12)C(=O)N1CCC[C@H]1C(=O)N[C@@H](CCCCN)C(=O)N[C@@H](Cc1ccccc1)C(=O)N[C@@H](CC(C)C)C(=O)N[C@@H](Cc1cnc[nH]1)C(=O)N[C@@H](CC(C)C)C(=O)N[C@@H](CC(C)C)C(=O)N[C@@H](CCCCN)C(=O)N[C@@H](CCCCN)C(=O)N[C@@H](Cc1ccccc1)C(N)=O 6.25 µM
CC(C)C[C@H](NC(=O)[C@H](Cc1c[nH]c2ccccc12)NC(=O)[C@H](CCCCN)NC(=O)[C@H](CC(C)C)NC(=O)[C@H](Cc1c[nH]c2ccccc12)NC(=O)[C@H](CC(C)C)NC(=O)[C@H](CCCCN)NC(=O)[C@H](Cc1c[nH]c2ccccc12)NC(=O)[C@H](CC(C)C)NC(=O)[C@@H](N)CCCCN)C(=O)N[C@@H](CCCCN)C(N)=O 4 µM

Pending compound:
INPUT: Any idea what MIC came out for "CC[C@H](C)[C@H](N)C(=O)N[C@@H](CC(C)C)C(=O)N1CCC[C@H]1C(=O)N[C@@H](Cc1c[nH]c2ccccc12)C(=O)N[C@@H](CCCCN)C(=O)N[C@@H](Cc1c[nH]c2ccccc12)C(=O)N[C@@H](CCCCN)C(=O)N[C@@H](Cc1c[nH]c2ccccc12)C(=O)N[C@@H](Cc1c[nH]c2ccccc12)C(=O)N1CCC[C@H]1C(=O)N[C@@H](Cc1c[nH]c2ccccc12)C(=O)N[C@@H](CCCN=C(N)N)C(=O)N[C@@H](CCCN=C(N)N)C(N)=O" on Escherichia coli KCTC 1682?
OUTPUT: 5.16 µM

###

# System: Staphylococcus aureus
Recorded MIC for the following molecules
Provide only the numeric value, understood in µM.

INPUT: Any idea what MIC came out for CC(C)C[C@H](NC(=O)[C@H](CCCCN)NC(=O)[C@H](Cc1ccccc1)NC(=O)[C@@H](NC(=O)[C@@H](NC(=O)[C@H](CCCCN)NC(=O)[C@H](CC(C)C)NC(=O)[C@@H](N)Cc1ccccc1)C(C)C)C(C)C)C(=O)N[C@@H](C)C(=O)N[C@@H](CO)C(=O)N[C@@H](CCCCN)C(=O)N[C@H](C(=O)N[C@@H](Cc1ccccc1)C(=O)NCC(=O)N[C@@H](C)C(=O)N[C@H](C(=O)N[C@@H](Cc1ccccc1)C(=O)NCC(=O)N[C@@H](CCCCN)C(=O)N[C@H](C(=O)O)C(C)C)C(C)C)C(C)C [FLKVVFKLASKVFGAVFGKV] on Staphylococcus aureus?
OUTPUT: 7.32

INPUT: Any idea what MIC came out for CC(C)C[C@H](NC(=O)[C@@H](NC(=O)[C@H](CCCCN)NC(=O)[C@H](CO)NC(=O)[C@H](C)NC(=O)[C@@H](NC(=O)[C@H](CCCCN)NC(=O)[C@H](Cc1ccccc1)NC(=O)[C@H](CC(C)C)NC(=O)[C@H](C)NC(=O)CN)C(C)C)C(C)C)C(=O)O [GALFKVASKVL] on Staphylococcus aureus?
OUTPUT: 177
